experiment: Growth inhibition of human BT-483 cells after 48 hrs by MTT assay in presence of 10% FBS supplemented DMEM medium; assay type: functional; conditions: BT-483, 48 h
PROPERTY: GI50
Don't forget the unit after the number, please.

Please report the recorded GI50 for O=S(=O)(c1ccccc1)N1CCN(Cc2ccc3cccnc3c2O)CC1 .
10.7 µM

###

Measured GI50 values are reported for all entries that follow.
test system: HeLa; test: Growth inhibition of human HeLa cells after 48 hrs by MTT assay in presence of 10% FBS supplemented DMEM medium; assay type: functional
Your answer is read as µM, so omit the unit and give the number.

Solved cases below.
Oc1c(CN2CCCCC2)ccc2ccccc12 :: 25.5
O=S(=O)(c1ccccc1)N1CCN(Cc2ccc3ccccc3c2O)CC1 :: 38.6
Oc1c(CN2CCCCC2)ccc2cccnc12 :: 14.5
O=S(=O)(c1ccccc1)N1CCN(Cc2ccc3cccnc3c2O)CC1 :: 6.8

Please report the recorded GI50 for Cc1ccc(S(=O)(=O)N2CCN(Cc3cc([N+](=O)[O-])c4cccnc4c3O)CC2)cc1 .
0.71

Please report the recorded GI50 for CCN(CC)CCCC(C)Nc1ccnc2cc(Cl)ccc12 (stereo unspecified) .
18.6
